Protocol: Food effect PK study, two single oral 1000 mg doses of abiraterone acetate, fed (high fat) vs fasted
Type: in vivo, human
Condition parameters: human, plasma, oral, 1000 mg, Patient 19; Fasted; sample time 4.017 hr
Assay endpoint: concentration at 4.017 hr (nM)
One number for each entry, in nM.

Reported concentration at 4.017 hr for C[C@]12CC[C@H](O)CC1=CC[C@@H]1[C@@H]2CC[C@]2(C)C(c3cccnc3)=CC[C@@H]12 [Abiraterone] : what is it?
334

====

Protocol: Food effect PK study, two single oral 1000 mg doses of abiraterone acetate, fed (high fat) vs fasted
Format: in vivo, human
Condition parameters: human, plasma, oral, 1000 mg, Patient 13; Fed; sample time 23.983 hr
Procedure: To measure the amount of abiraterone and abiraterone acetate in the samples, these compounds were extracted from 100 uL human plasma using solid phase extraction (SPE) with cation mixed-mode polymer cartridges. Extracts were evaporated to dryness before reconstitution and analysis. Chromatography was carried out using a Luna™ C5 column (5 μm, 50 mm×2.1 mm id) with a gradient mobile phase consisting of 10 mM ammonium acetate and 2% propan-2-ol in acetonitrile. […]
Assay endpoint: concentration at 23.983 hr
Remember to quote the unit after the number.

Reported concentration at 23.983 hr for C[C@]12CC[C@H](O)CC1=CC[C@@H]1[C@@H]2CC[C@]2(C)C(c3cccnc3)=CC[C@@H]12 : what is it?
93.7 nM

====

Protocol: Food effect PK study, two single oral 1000 mg doses of abiraterone acetate, fed (high fat) vs fasted
Format: in vivo, human
Condition parameters: human, plasma, oral, 1000 mg, Patient 14; Fasted; sample time 8.017 hr
Assay endpoint: concentration at 8.017 hr (nM)
Numbers only, in nM.

Reported concentration at 8.017 hr for C[C@]12CC[C@H](O)CC1=CC[C@@H]1[C@@H]2CC[C@]2(C)C(c3cccnc3)=CC[C@@H]12 : what is it?
48.6

====

Protocol: Pharmacokinetic study of abiraterone in hormone refractory prostate cancer patients, oral doses 250-2000 mg/day, fasted
Assay type: in vivo, human
Condition parameters: male, human; mean; 2000 mg/day abiraterone acetate oral, fasted; plasma; read-out: AUCINF_obs
Description: A group of 15 subjects was divided into five groups. Members of each group were orally administered doses of 250 mg/day, 500 mg/day, 750 mg/day, 1000 mg/day or 2000 mg/day once a day. Before administration the subjects had fasted. PK blood samples were measured at 1, 2, 4, 6, 8, 24, and 72 hours post dose. […]
Assay endpoint: AUC(0-inf) (µM·h)
Give bare numbers, in µM·h.

Reported AUC(0-inf) for C[C@]12CC[C@H](O)CC1=CC[C@@H]1[C@@H]2CC[C@]2(C)C(c3cccnc3)=CC[C@@H]12 : what is it?
4.98

====

Protocol: Food effect PK study, two single oral 1000 mg doses of abiraterone acetate, fed (high fat) vs fasted
Format: in vivo, human
Condition parameters: human, plasma, oral, 1000 mg, Patient 14; Fasted
Assay endpoint: Tmax (h)
Answers are plain numbers, in h.

Reported Tmax for C[C@]12CC[C@H](O)CC1=CC[C@@H]1[C@@H]2CC[C@]2(C)C(c3cccnc3)=CC[C@@H]12 [Abiraterone] : what is it?
4.07

====

Protocol: Food effect PK study, two single oral 1000 mg doses of abiraterone acetate, fed (high fat) vs fasted
Type: in vivo, human
Condition parameters: human, plasma, oral, 1000 mg, Patient 13; Fasted; sample time 1.033 hr
Assay endpoint: concentration at 1.033 hr (nM)
Numbers only, in nM.

Reported concentration at 1.033 hr for C[C@]12CC[C@H](O)CC1=CC[C@@H]1[C@@H]2CC[C@]2(C)C(c3cccnc3)=CC[C@@H]12 : what is it?
548

====

Protocol: Pharmacokinetic study of abiraterone in hormone refractory prostate cancer patients, oral doses 250-2000 mg/day, fasted
Type: in vivo, human
Condition parameters: male, human; mean; 500 mg/day abiraterone acetate oral, fasted; plasma
Assay endpoint: Cmax (nM)
Give bare numbers, in nM.

Reported Cmax for C[C@]12CC[C@H](O)CC1=CC[C@@H]1[C@@H]2CC[C@]2(C)C(c3cccnc3)=CC[C@@H]12 : what is it?
284

====

Protocol: Food effect PK study, two single oral 1000 mg doses of abiraterone acetate, fed (high fat) vs fasted
Assay type: in vivo, human
Condition parameters: human, plasma, oral, 1000 mg, Patient 14; Fed
Assay endpoint: Tmax (h)
One number for each entry, in h.

Reported Tmax for C[C@]12CC[C@H](O)CC1=CC[C@@H]1[C@@H]2CC[C@]2(C)C(c3cccnc3)=CC[C@@H]12 : what is it?
1.03

====

Protocol: Food effect PK study, two single oral 1000 mg doses of abiraterone acetate, fed (high fat) vs fasted
Type: in vivo, human
Condition parameters: human, plasma, oral, 1000 mg, Patient 13; Fasted; sample time 8.000 hr
Assay endpoint: concentration at 8 hr (nM)
Give bare numbers, in nM.

Reported concentration at 8 hr for C[C@]12CC[C@H](O)CC1=CC[C@@H]1[C@@H]2CC[C@]2(C)C(c3cccnc3)=CC[C@@H]12 : what is it?
89.4

====

Protocol: Food effect PK study, two single oral 1000 mg doses of abiraterone acetate, fed (high fat) vs fasted
Format: in vivo, human
Condition parameters: human, plasma, oral, 1000 mg, Patient 21; Fasted
Assay endpoint: Cmax (nM)
Answers are plain numbers, in nM.

Reported Cmax for C[C@]12CC[C@H](O)CC1=CC[C@@H]1[C@@H]2CC[C@]2(C)C(c3cccnc3)=CC[C@@H]12 : what is it?
648

====

Protocol: Food effect PK study, two single oral 1000 mg doses of abiraterone acetate, fed (high fat) vs fasted
Assay type: in vivo, human
Condition parameters: human, plasma, oral, 1000 mg, Patient 19; Fed; sample time 8.000 hr
Assay endpoint: concentration at 8 hr (nM)
One number for each entry, in nM.

Reported concentration at 8 hr for C[C@]12CC[C@H](O)CC1=CC[C@@H]1[C@@H]2CC[C@]2(C)C(c3cccnc3)=CC[C@@H]12 : what is it?
344

====

Protocol: Food effect PK study, two single oral 1000 mg doses of abiraterone acetate, fed (high fat) vs fasted
Format: in vivo, human
Condition parameters: human, plasma, oral, 1000 mg, Patient 19; Fed; sample time 2.200 hr
Assay endpoint: concentration at 2.2 hr (nM)
Answers are plain numbers, in nM.

Reported concentration at 2.2 hr for C[C@]12CC[C@H](O)CC1=CC[C@@H]1[C@@H]2CC[C@]2(C)C(c3cccnc3)=CC[C@@H]12 : what is it?
466

====

Protocol: Food effect PK study, two single oral 1000 mg doses of abiraterone acetate, fed (high fat) vs fasted
Assay type: in vivo, human
Condition parameters: human, plasma, po, 1000 mg, mean; 1000 mg single oral dose; Fasted; read-out: Vz F obs
Assay endpoint: Vd/F (L)
Numbers only, in L.

Reported Vd/F for C[C@]12CC[C@H](O)CC1=CC[C@@H]1[C@@H]2CC[C@]2(C)C(c3cccnc3)=CC[C@@H]12 [Abiraterone] : what is it?
10100

====

Protocol: Food effect PK study, two single oral 1000 mg doses of abiraterone acetate, fed (high fat) vs fasted
Assay type: in vivo, human
Condition parameters: human, plasma, oral, 1000 mg, Patient 20; Fed; sample time 8.033
Assay endpoint: concentration at 8.033 h (nM)
Give bare numbers, in nM.

Reported concentration at 8.033 h for C[C@]12CC[C@H](O)CC1=CC[C@@H]1[C@@H]2CC[C@]2(C)C(c3cccnc3)=CC[C@@H]12 : what is it?
1580

====

Protocol: Pharmacokinetic study of abiraterone in hormone refractory prostate cancer patients, oral doses 250-2000 mg/day, fasted
Format: in vivo, human
Condition parameters: male, human; mean; 250 mg/day abiraterone acetate oral, fasted; plasma
Assay endpoint: Cmax (nM)
Give bare numbers, in nM.

Reported Cmax for C[C@]12CC[C@H](O)CC1=CC[C@@H]1[C@@H]2CC[C@]2(C)C(c3cccnc3)=CC[C@@H]12 : what is it?
219

====

Protocol: Food effect PK study, two single oral 1000 mg doses of abiraterone acetate, fed (high fat) vs fasted
Format: in vivo, human
Condition parameters: human, plasma, oral, 1000 mg, Patient 21; Fed; sample time 4.000
Assay endpoint: concentration at 4 h (nM)
Answers are plain numbers, in nM.

Reported concentration at 4 h for C[C@]12CC[C@H](O)CC1=CC[C@@H]1[C@@H]2CC[C@]2(C)C(c3cccnc3)=CC[C@@H]12 [Abiraterone] : what is it?
102

====

Protocol: Food effect PK study, two single oral 1000 mg doses of abiraterone acetate, fed (high fat) vs fasted
Type: in vivo, human
Condition parameters: human, plasma, oral, 1000 mg, Patient 14; 1000 mg; Fasted; read-out: Cl F obs (converted)
Assay endpoint: clearance

Reported clearance for C[C@]12CC[C@H](O)CC1=CC[C@@H]1[C@@H]2CC[C@]2(C)C(c3cccnc3)=CC[C@@H]12 : what is it?
32600 mL/min

Origin of values: patent US20090124587A1
